testTarget: Recombinant human HSD17B13 enzyme (Homo sapiens)
Sequence (Q7Z5P4 20-300): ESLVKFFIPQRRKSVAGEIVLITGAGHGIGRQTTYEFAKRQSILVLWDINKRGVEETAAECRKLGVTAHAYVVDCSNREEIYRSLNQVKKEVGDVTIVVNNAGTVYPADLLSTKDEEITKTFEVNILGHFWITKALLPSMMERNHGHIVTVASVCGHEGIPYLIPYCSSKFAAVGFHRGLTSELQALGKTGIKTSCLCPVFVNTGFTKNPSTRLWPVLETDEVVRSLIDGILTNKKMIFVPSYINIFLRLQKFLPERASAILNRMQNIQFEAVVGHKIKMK
test: HSD17b13 NAD(P)H-Glo biochemical assay
settings: 50 uM estradiol, 1 mM NAD+, NAD(P)H-Glo luminescence; read-out: HSD17β13 IC50
readoutLabel: IC50

Exercise: # query: IC50 of entry Cn1nc(-c2cc(C(F)(F)F)c(F)c(O)c2F)c2cnc(N3CCCC34CCOCC4)cc21
Solution: < 100 nM

Exercise: Same for Cn1nc(-c2cc(C(F)(F)F)c(F)c(O)c2F)c2cnc(N3CCOC(c4ccccn4)C3)nc21 (stereo not drawn)
Solution: < 100 nM

Exercise: What do you get for Cn1nc(-c2cc(C(F)(F)F)c(F)c(O)c2F)c2cnc(N3CCN(S(C)(=O)=O)C4(CCCCC4)C3)nc21 ?
Solution: < 100 nM

Exercise: Same lookup for Cn1nc(-c2cc(C(F)(F)F)c(F)c(O)c2F)c2cnc(N3CCC4(CCNC4=O)CC3)nc21 , please.
Solution: < 100 nM

Exercise: Now try Oc1cc(-c2nc3cc(-c4ccc(O)c(Cl)c4)ccc3o2)ccc1F .
Solution: 100 to 1000 nM

Exercise: Please do the same for Cn1nc(-c2cc(C(F)(F)F)c(F)c(O)c2F)c2cnc(N3CC4CCC3CC4)cc21 as well.
Solution: < 100 nM

Exercise: Now try Cn1nc(-c2cc(C(F)(F)F)c(F)c(O)c2F)c2cnc(N3CCN(C(=O)O)C(=O)C3)cc21 .
Solution: 1000 to 30000 nM

Exercise: Now the same for Cn1nc(-c2cc(C(F)(F)F)c(F)c(O)c2F)c2cnc(N3CC4(COC4)C3)cc21
Solution: < 100 nM

Exercise: Queued: Cn1nc(-c2cc(C(F)(F)F)c(F)c(O)c2F)c2cnc(N3CCOCCC34CC4)cc21
Solution: < 100 nM

Exercise: Moving on to the next compound: Cn1nc(-c2cc(C(F)(F)F)c(F)c(O)c2F)c2cnc(N3CCN(C(=O)Nc4ccccc4)CC34CC4)cc21
Solution: < 100 nM

Exercise: Proceed to Cn1nc(-c2cc(C(F)(F)F)c(F)c(O)c2F)c2cnc(N3CC4(CC4)NCC3=O)cc21
Solution: 100 to 1000 nM

Exercise: Can you handle CS(=O)(=O)N1CC(NC(=O)c2ccc3oc(-c4cc(C(F)(F)F)c(F)c(O)c4F)nc3c2)C1 next?
Solution: 100 to 1000 nM

Exercise: Try this compound too: O=C(NC12CC(O)(C1)C2)c1ccc2oc(-c3cc(O)c(F)c(C(F)(F)F)c3)nc2c1
Solution: 100 to 1000 nM

Exercise: Please do the same for CN(c1cc2c(cc1F)c(-c1cc(C(F)(F)F)c(F)c(O)c1F)nn2C)C1CCOCC1 as well.
Solution: < 100 nM

Exercise: Please give the result for CC(=O)N1CCC(N(C)c2ncc3c(-c4cc(C(F)(F)F)c(F)c(O)c4F)nn(C)c3n2)CC1 too.
Solution: < 100 nM

* * *

Provide the recorded pIC50 for the entries that follow.
testTarget: Recombinant human HSD17B13 enzyme (Homo sapiens)
test: HSD17b13 NAD(P)H-Glo biochemical assay
settings: 50 uM estradiol, 1 mM NAD+, NAD(P)H-Glo luminescence; read-out: HSD17β13 IC50
pIC50: −log10 of the molar value.

Exercise: pIC50 of Cn1nc(-c2cc(C(F)(F)F)c(F)c(O)c2F)c2cnc(N3CCC(O)(CO)CC3)nc21 on Recombinant human HSD17B13 enzyme (Homo sapiens)?
Solution: > 7.00

Exercise: Proceed to CS(=O)(=O)N1CCN(c2cnc3c(-c4cc(O)c(F)c(C(F)(F)F)c4)n[nH]c3n2)CC1
Solution: 6.00 to 7.00

Exercise: Then this compound: Cn1nc(-c2cc(C(F)(F)F)c(F)c(O)c2F)c2cnc(N(Cc3cccnc3)C3CCOCC3)cc21
Solution: > 7.00

Exercise: And Cn1nc(-c2cc(C(F)(F)F)c(F)c(O)c2F)c2cnc(N3CCOC(C)(C#N)C3)cc21 (stereo not shown) ?
Solution: > 7.00
